Measured growth inhibition accompanies every entry in the list below.
# Assay summary: NCI Yeast Anticancer Drug Screen. Data for the cln2 rad14 strain (AID 165);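 note: 0% = growth equal to vehicle treated cultures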
# Conditions used: S. cerevisiae cln2 rad14 strain, at 50.0 µM, hits give high values
The panel holds about 79,000 compounds, 15% with a hit somewhere; the sample as a whole holds those more often.
Answer format: numeric, % implied, no suffix.

Answered examples (10):
> print(dat)
                                    molecule    measured.metric  value.reported
 1   COCCNc1ccc([N+](=O)[O-])cc1[N+](=O)[O-]  growth inhibition           -26.9
 2  CC(C)CCCC(C)C1CCC2(C)C3=C(CCC12C)C1(C)Cc2cnn(-c4ccccc4)c2C(C)(C)C1CC3 (centres undefined)  growth inhibition           -12.8
 3               CN1c2ccccc2Oc2ccc3ccccc3c21  growth inhibition            -4.3
 4        Cc1cccc(NS(=O)(=O)c2ccc(Cl)cc2)c1C  growth inhibition            98.3
 5                   CCCCN=C=NCCC[N+](C)(C)C  growth inhibition              10
 6  CCCCOB1OC(c2ccccc2)(c2ccccc2)c2ccccc2C(c2ccccc2)(c2ccccc2)O1  growth inhibition            3.85
 7  CC(C)C(O)C(=O)C(O)C(C)C (centres undefined)  growth inhibition            15.7
 8          CCN(CC)/N=C\c1c2ccccc2cc2ccccc12  growth inhibition             9.4
 9  c1ccc(C(SN=C2CCCCC2)(c2ccccc2)c2ccccc2)cc1  growth inhibition            10.9
10  CC(=O)/C=C(\c1ccccc1)c1c(O)c2ccccc2oc1=O  growth inhibition             7.2

Problem: # lookup: growth inhibition of Cc1cc[n+](C(C)CCC(C)[n+]2ccc(C)cc2)cc1 (centres undefined)
Solution: 27

====

# Assay summary: NCI Yeast Anticancer Drug Screen. Data for the mec2-1 strain (AID 157)
# Conditions used: S. cerevisiae mec2-1 strain, at 50.0 µM, hits give high values
Compounds without any hit were thinned out: in the full panel of roughly 79,000, 15% have a hit.
Measured metric: growth inhibition (%)
Record the value in %, omitting the unit from your answer.

Here are 6 compounds together with their reported answers.
> print(dat)
                                   compound  unit.tag  value.reported
1                        Cc1ccc(NC(N)=O)cc1         %           -43.9
2                             O=C1CSC(=O)N1         %           -14.4
3  CC(CCNC(=S)S)CC(C)(C)C.[Zn+2] (stereo not given)         %            15.1
4  O=S(=O)(c1ccccc1)C1(Sc2ccccc2)CC(Br)[C@@H](Br)C1 (stereo not given in full)         %             7.3
5              O=c1[nH]c2ccc(Cl)cc2[nH]c1=O         %               5
6  c1ccc2nn(C3CCCCO3)nc2c1 (stereo not given)         %           -9.85

Problem: Name the recorded growth inhibition for CC(=O)Nc1ccc(S(=O)(=O)[N-]C2C(=O)c3ccccc3C(=O)C2[n+]2ccccc2)cc1 (stereo not given) .
Solution: 23.1

Problem: Returns the measured growth inhibition for the input compound. Input: O=C(O)[C@H]1C[C@H](O)CCN1
Solution: -8.65

Problem: If you can, please state the reported growth inhibition value of Cc1ccc(C(=O)c2ccccc2Cc2cccc3ccccc23)c(C)c1 .
Solution: 6.6

Problem: Form field: reported growth inhibition of CCC(O)C(O)(c1ccccc1)c1ccccc1 (stereo not given)
Solution: 8

Problem: Record request: growth inhibition value, item Cc1cc2c(cc1C)C(O)CCC(=O)N2 (stereo not given)
Solution: 3.7

Problem: Recorded growth inhibition of CC(=O)NCC1OCC2OC(C)(C)OC12 (stereo not given) , please.
Solution: -5

Problem: Entry COc1ccc(C(=O)N/N=C/c2cccc(OC)c2OC)cc1 has what growth inhibition?
Solution: -4.75

====

Each item that follows carries a reported growth inhibition.
# Assay summary: NCI Yeast Anticancer Drug Screen. Data for the mec2-1 strain (AID 157)
# Conditions used: S. cerevisiae mec2-1 strain, at 50.0 µM, hits give high values
The panel holds about 79,000 compounds, 15% with a hit somewhere; the sample as a whole holds those more often. Calls of active or inactive are those of the source. Cut-off read from the data, not from the text of the source: active = growth inhibition above about 70%; inactive = the rest.

> print(dat)
                                   compound    measured.metric     value.reported
1  Nc1c(Br)cc2c([nH]c(=O)c3cc(Br)ccc32)c1Br  growth inhibition   32.2% (inactive)
2            COc1cnc2cc(C(=O)O)c3ccccc3c2c1  growth inhibition    9.7% (inactive)
3  O=C1c2cc(Cl)ccc2-n2c(noc2=O)C2CSCN12 (stereo unspecified)  growth inhibition  -10.3% (inactive)
4  COc1cc(NCC(C#N)C#N)ccc1N=Nc1ccc([N+](=O)[O-])cc1  growth inhibition   26.4% (inactive)
5  c1ccc(C[S][Sn]([c]2ccccc2)([c]2ccccc2)[c]2ccccc2)cc1  growth inhibition     96.2% (active)

Problem: Entry CCOC(=O)c1ccnc(F)c1 has what growth inhibition?
Solution: -15.7% (inactive)

====

# Assay summary: NCI Yeast Anticancer Drug Screen. Data for the cln2 rad14 strain (AID 165);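 note: 0% = growth equal to vehicle treated cultures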
# Conditions used: S. cerevisiae cln2 rad14 strain, at 50.0 µM, hits give high values
# Method: Growth inhibition of yeast strains with defined genetic alterations is measured as a screen for potential anti-cancer activity. Selected strains with alterations in DNA damage repair or cell cycle control were exposed to compounds and growth inhibition was measured relative to vehicle treated controls. The strain used in this assay is cln2 rad14
This is part of a sample that, as a whole, favours compounds with a hit. Of some 79,000 tested, about 15% had one in any assay. Calls of active or inactive are those of the source. Cut-off read from the data, not from the text of the source: active = growth inhibition above about 70%; inactive = the rest.
Reported growth inhibition by item:

> print(dat)
                                   molecule     value.reported
1  OC1c2ccccc2CC12Cc1ccccc1C2 (centres undefined)   23.5% (inactive)
2                    CCC(=O)c1nc(N)[nH]c1CC  -44.3% (inactive)
3            CC(C)=CCN(N=O)c1ncnc2nc[nH]c12   -2.5% (inactive)
4                        Cc1cccc(C(=O)O)c1N   9.95% (inactive)
5                Cc1nc2c(SCc3ccccc3)ncnc2o1   22.8% (inactive)
6  c1ccc2c(c1)CCc1cc3cc4c(nc3nc1-2)-c1ccccc1CC4   -9.4% (inactive)
7                    Cc1cc2c(cc1C)OC(=O)CC2  -11.9% (inactive)
8        O=C(c1cccc([N+](=O)[O-])c1)c1cccs1    4.3% (inactive)

Next:
Problem: Look up growth inhibition: COc1ccc(-c2nnc(CCCCCCCCc3nnc(-c4ccc(OC)cc4)n3N)n2N)cc1
Solution: 0.8% (inactive)

====

# Assay summary: NCI Yeast Anticancer Drug Screen. Data for the mlh1 rad18 strain (AID 175)
# Conditions used: S. cerevisiae mlh1 rad18 strain growth inhibition; at 50.0 µM; hits give high values
Compounds without any hit were thinned out: in the full panel of roughly 79,000, 15% have a hit.
Rule: growth inhibition under 10% gives class 0, otherwise class 1.

Recorded results for 5 compounds are shown here.
> print(dat)
                                   compound  assigned.category
1  COC(=O)c1ccccc1NC(=O)C(=O)NNC(=O)c1ccncc1            class 1
2  CC1=C(\C=C/C(C)=C/C=C/C(C)=C/C=N/NC(=O)c2cccnc2)C(C)(C)CCC1            class 1
3    CCCCN(CCCC)CC(C)O (stereo unspecified)            class 0
4  COc1ccccc1/C=C/C(=O)N1CCC2(CC1)C(=O)N(C)CN2c1ccccc1            class 0
5  NC(CCCCC(N)C(=O)c1ccccc1)C(=O)c1ccccc1 (stereo unspecified)            class 0

// switching to the query compound
Problem: Answer whether growth inhibition of COc1ccc(CNc2ncccn2)cc1 is greater than or equal to 10%.
Solution: class 1

====

Entries and their measured growth inhibition follow.
# Assay summary: NCI Yeast Anticancer Drug Screen. Data for the cln2 rad14 strain (AID 165);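 note: 0% = growth equal to vehicle treated cultures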
# Conditions used: S. cerevisiae cln2 rad14 strain, at 50.0 µM, hits give high values
Compounds without any hit were thinned out: in the full panel of roughly 79,000, 15% have a hit.
Just the number please, in %, no unit attached.

> print(dat)
                                   compound  value.reported
1  CCOc1ccc(Nc2ccc3c(O)cc(S(=O)(=O)O)cc3c2)cc1           -20.4

Problem: Given the compound Cc1cccc2c(CC(N)C(=O)O)c[nH]c12 (stereo not drawn) , what is its reported growth inhibition?
Solution: -23.4

Problem: Give its growth inhibition value. Item: CCOC(=O)C1=NN(c2ccccc2)C(=O)/C1=C\n1ccc(=O)[nH]c1=S
Solution: -36.1
